Here the recorded Tumor-to-liver is given for each entry.
# Tested on: PC-3 PIP/flu tumor-bearing mice
# protocol: Biodistribution study in PC-3 PIP/flu tumor-bearing mice
# Type: in vivo, athymic nude Balb/c mice
# stated conditions: 24 h p.i., PC-3 PIP/flu tumor-bearing mice
// return a plain number; no unit text

A selection of reference data follows.
{"columns": ["compound", "Tumor-to-liver"],
 "data": [
  ["CC(C)Cc1ccc(C(C)C(=O)NCC[C@H](NC(=O)CN2CCN(CC(=O)O)CCN(CC(=O)O)CCN(CC(=O)O)CC2)C(=O)NCC2CCC(C(=O)N[C@@H](Cc3ccc4ccccc4c3)C(=O)NCCCC[C@H](NC(=O)N[C@@H](CCC(=O)O)C(=O)O)C(=O)O)CC2)cc1 (stereo partly shown) [^177Lu-Ibu-sPSMA, metal not drawn]", 163],
  ["CC(C)Cc1ccc(C(C)C(=O)NC(CC(=O)NCCCCC(NC(=O)CN2CCN(CC(=O)O)CCN(CC(=O)O)CCN(CC(=O)O)CC2)C(=O)NCC2CCC(C(=O)NC(Cc3ccc4ccccc4c3)C(=O)NCCCCC(NC(=O)NC(CCC(=O)O)C(=O)O)C(=O)O)CC2)C(=O)O)cc1 (stereo not shown) [^177Lu-Ibu-Dβ-PSMA, metal not drawn]", 151],
  ["CC(C)Cc1ccc(C(C)C(=O)NC(CCN)C(=O)NCCCCC(NC(=O)CN2CCN(CC(=O)O)CCN(CC(=O)O)CCN(CC(=O)O)CC2)C(=O)NCC2CCC(C(=O)NC(Cc3ccc4ccccc4c3)C(=O)NCCCCC(NC(=O)NC(CCC(=O)O)C(=O)O)C(=O)O)CC2)cc1 (stereo not shown) [^177Lu-Ibu-DAB-PSMA, metal not drawn]", 98.3]
]}

Look up Tumor-to-liver for this compound: CC(C)Cc1ccc(C(C)C(=O)NCCCCC(NC(=O)CN2CCN(CC(=O)O)CCN(CC(=O)O)CCN(CC(=O)O)CC2)C(=O)NCC2CCC(C(=O)NC(Cc3ccc4ccccc4c3)C(=O)NCCCCC(NC(=O)NC(CCC(=O)O)C(=O)O)C(=O)O)CC2)cc1 (stereo not shown) [^177Lu-Ibu-PSMA, metal not drawn]
95.4

###

Form field: Liver (one value per entry).
# Test system: PC-3 PIP/flu tumor-bearing mice
# protocol: Biodistribution study in PC-3 PIP/flu tumor-bearing mice
# Type: in vivo, athymic nude Balb/c mice
# stated conditions: 24 h p.i., PC-3 PIP/flu tumor-bearing mice
# Procedure: In vivo experiments were approved by the local veterinarian department and conducted in accordance with the Swiss law of animal protection. Mice were obtained from Charles River Laboratories, Sulzfeld, Germany, at the age of 5-6 weeks. […] Biodistribution studies were performed 12-15 days after PC-3 PIP/flu tumor cell inoculation. […] Selected tissues and organs were collected, weighed and measured using a γ-counter. […]
Numeric answer only, unit % IA/g assumed.

{"columns": ["compound", "Liver, % IA/g"],
 "data": [
  ["CC(C)Cc1ccc(C(C)C(=O)NC(CCN)C(=O)NCCCCC(NC(=O)CN2CCN(CC(=O)O)CCN(CC(=O)O)CCN(CC(=O)O)CC2)C(=O)NCC2CCC(C(=O)NC(Cc3ccc4ccccc4c3)C(=O)NCCCCC(NC(=O)NC(CCC(=O)O)C(=O)O)C(=O)O)CC2)cc1 (centres unmarked) [^177Lu-Ibu-DAB-PSMA, metal not drawn]", 0.56]
]}

Shift focus to the following entry.
Record request: Liver value, item CC(C)Cc1ccc(C(C)C(=O)NC(CC(N)=O)C(=O)NCCCCC(NC(=O)CN2CCN(CC(=O)O)CCN(CC(=O)O)CCN(CC(=O)O)CC2)C(=O)NCC2CCC(C(=O)NC(Cc3ccc4ccccc4c3)C(=O)NCCCCC(NC(=O)NC(CCC(=O)O)C(=O)O)C(=O)O)CC2)cc1 (centres unmarked) [^177Lu-Ibu-N-PSMA, metal not drawn]
0.32

###

# System: PC-3 PIP/flu tumor-bearing mice
# protocol: Biodistribution study in PC-3 PIP/flu tumor-bearing mice
# Format: in vivo, athymic nude Balb/c mice
# stated conditions: 24 h p.i., PSMA-positive tumor xenograft, mice
measure: PC-3 PIP Tumor (% IA/g)
A number alone suffices; assume % IA/g.

Query the reported PC-3 PIP Tumor for PC-3 PIP/flu tumor-bearing mice; item: CC(C)Cc1ccc(C(C)C(=O)NC(CC(=O)O)C(=O)NCCCCC(NC(=O)CN2CCN(CC(=O)O)CCN(CC(=O)O)CCN(CC(=O)O)CC2)C(=O)NCC2CCC(C(=O)NC(Cc3ccc4ccccc4c3)C(=O)NCCCCC(NC(=O)NC(CCC(=O)O)C(=O)O)C(=O)O)CC2)cc1 (centres unmarked) [^177Lu-Ibu-Dα-PSMA, metal not drawn]
84.2

What value of PC-3 PIP Tumor on PC-3 PIP/flu tumor-bearing mice does CC(C)Cc1ccc(C(C)C(=O)NC(CCN)C(=O)NCCCCC(NC(=O)CN2CCN(CC(=O)O)CCN(CC(=O)O)CCN(CC(=O)O)CC2)C(=O)NCC2CCC(C(=O)NC(Cc3ccc4ccccc4c3)C(=O)NCCCCC(NC(=O)NC(CCC(=O)O)C(=O)O)C(=O)O)CC2)cc1 (centres unmarked) [^177Lu-Ibu-DAB-PSMA, metal not drawn] have?
52.4

###

# Test system: PC-3 PIP/flu tumor-bearing mice
# protocol: Biodistribution study in PC-3 PIP/flu tumor-bearing mice
# Assay type: in vivo, athymic nude Balb/c mice
# stated conditions: 24 h p.i., PC-3 PIP/flu tumor-bearing mice
measure: Heart (% IA/g)
Dear colleague, please return just the value in % IA/g, with no unit written.

{"columns": ["compound", "units symbol", "Heart"],
 "data": [
  ["CC(C)Cc1ccc(C(C)C(=O)NC(CC(N)=O)C(=O)NCCCCC(NC(=O)CN2CCN(CC(=O)O)CCN(CC(=O)O)CCN(CC(=O)O)CC2)C(=O)NCC2CCC(C(=O)NC(Cc3ccc4ccccc4c3)C(=O)NCCCCC(NC(=O)NC(CCC(=O)O)C(=O)O)C(=O)O)CC2)cc1 (stereo not shown) [^177Lu-Ibu-N-PSMA, metal not drawn]", "% IA/g", 0.12],
  ["CC(C)Cc1ccc(C(C)C(=O)NC(CCN)C(=O)NCCCCC(NC(=O)CN2CCN(CC(=O)O)CCN(CC(=O)O)CCN(CC(=O)O)CC2)C(=O)NCC2CCC(C(=O)NC(Cc3ccc4ccccc4c3)C(=O)NCCCCC(NC(=O)NC(CCC(=O)O)C(=O)O)C(=O)O)CC2)cc1 (stereo not shown) [^177Lu-Ibu-DAB-PSMA, metal not drawn]", "% IA/g", 0.10],
  ["CC(C)Cc1ccc(C(C)C(=O)NCCCCC(NC(=O)CN2CCN(CC(=O)O)CCN(CC(=O)O)CCN(CC(=O)O)CC2)C(=O)NCC2CCC(C(=O)NC(Cc3ccc4ccccc4c3)C(=O)NCCCCC(NC(=O)NC(CCC(=O)O)C(=O)O)C(=O)O)CC2)cc1 (stereo not shown) [^177Lu-Ibu-PSMA, metal not drawn]", "% IA/g", 0.33]
]}

Reported Heart for CC(C)Cc1ccc(C(C)C(=O)NC(CC(=O)NCCCCC(NC(=O)CN2CCN(CC(=O)O)CCN(CC(=O)O)CCN(CC(=O)O)CC2)C(=O)NCC2CCC(C(=O)NC(Cc3ccc4ccccc4c3)C(=O)NCCCCC(NC(=O)NC(CCC(=O)O)C(=O)O)C(=O)O)CC2)C(=O)O)cc1 (stereo not shown) [^177Lu-Ibu-Dβ-PSMA, metal not drawn] : what is it?
0.57

###

# protocol: Plasma protein binding, ultrafiltration assay
# Assay type: in vitro ADME
# stated conditions: incubated in human plasma at 37° C., read-out: fraction of radioligand retained in the filter membrane (serum protein binding) (converted)
measure: fraction unbound

Could you share which fraction unbound value was measured for CC(C)Cc1ccc(C(C)C(=O)NCC[C@H](NC(=O)CN2CCN(CC(=O)O)CCN(CC(=O)O)CCN(CC(=O)O)CC2)C(=O)NCC2CCC(C(=O)N[C@@H](Cc3ccc4ccccc4c3)C(=O)NCCCC[C@H](NC(=O)N[C@@H](CCC(=O)O)C(=O)O)C(=O)O)CC2)cc1 (stereo partly shown) [^177Lu-Ibu-sPSMA, metal not drawn] ?
~0.03

###

A collection of compounds and their measured Kidneys
# Tested on: PC-3 PIP/flu tumor-bearing mice
# protocol: Biodistribution study in PC-3 PIP/flu tumor-bearing mice
# Format: in vivo, athymic nude Balb/c mice
# stated conditions: 24 h p.i., PC-3 PIP/flu tumor-bearing mice
# Experimental: In vivo experiments were approved by the local veterinarian department and conducted in accordance with the Swiss law of animal protection. Mice were obtained from Charles River Laboratories, Sulzfeld, Germany, at the age of 5-6 weeks. […] Biodistribution studies were performed 12-15 days after PC-3 PIP/flu tumor cell inoculation. […] Selected tissues and organs were collected, weighed and measured using a γ-counter. […]
Express your answer in % IA/g, writing the number without its unit.

Worked cases, Kidneys given:
{"columns": ["compound", "Kidneys (% IA/g)"],
 "data": [
  ["CC(C)Cc1ccc(C(C)C(=O)NC(CCN)C(=O)NCCCCC(NC(=O)CN2CCN(CC(=O)O)CCN(CC(=O)O)CCN(CC(=O)O)CC2)C(=O)NCC2CCC(C(=O)NC(Cc3ccc4ccccc4c3)C(=O)NCCCCC(NC(=O)NC(CCC(=O)O)C(=O)O)C(=O)O)CC2)cc1 (stereo not drawn) [^177Lu-Ibu-DAB-PSMA, metal not drawn]", 6.00],
  ["CC(C)Cc1ccc(C(C)C(=O)NCCCCC(NC(=O)CN2CCN(CC(=O)O)CCN(CC(=O)O)CCN(CC(=O)O)CC2)C(=O)NCC2CCC(C(=O)NC(Cc3ccc4ccccc4c3)C(=O)NCCCCC(NC(=O)NC(CCC(=O)O)C(=O)O)C(=O)O)CC2)cc1 (stereo not drawn) [^177Lu-Ibu-PSMA, metal not drawn]", 16.5]
]}

Continue with the compound presented below.
Given CC(C)Cc1ccc(C(C)C(=O)NC(CC(N)=O)C(=O)NCCCCC(NC(=O)CN2CCN(CC(=O)O)CCN(CC(=O)O)CCN(CC(=O)O)CC2)C(=O)NCC2CCC(C(=O)NC(Cc3ccc4ccccc4c3)C(=O)NCCCCC(NC(=O)NC(CCC(=O)O)C(=O)O)C(=O)O)CC2)cc1 (stereo not drawn) [^177Lu-Ibu-N-PSMA, metal not drawn] , state its recorded Kidneys.
8.02

Values were extracted from patent US20220024882A1.
